Attribution: patent US11459336B2

experiment: Liver microsomal stability assay (extraction ratio); format: in vitro ADME; settings: test compound 1 μM; 0.5 mg/mL liver microsomes, 1 mM NADPH, 37° C.; species not given (method: mouse, rat, and human)
Here, each record is paired with measured Extraction Ratio @ 1 μM data.

{"molecule": "C[C@H]1COC(=O)N1Cc1cncc(-c2ccc(F)c(C(F)F)c2)n1 [Example 8]", "Extraction Ratio @ 1 μM": 0.06}
{"molecule": "CNC(=O)C1CN(Cc2cncc(-c3ccc(F)c(C(F)F)c3)n2)C(=O)O1 (racemic) [Example 59]", "Extraction Ratio @ 1 μM": 0.18}
{"molecule": "O=C1OC2(CC2)CN1Cc1cncc(-c2ccc(F)c(C(F)F)c2)n1 [Example 3]", "Extraction Ratio @ 1 μM": 0.05}
{"molecule": "Cc1ncc(-c2ccc(F)c(C(F)F)c2)nc1CN1CCCOC1=O [Example 15]", "Extraction Ratio @ 1 μM": 0.06}
{"molecule": "Cc1ncc(-c2ccc(F)c(C(F)F)c2)nc1CN1C(=O)OC[C@H]1C [Example 11]", "Extraction Ratio @ 1 μM": 0.18}
